- test target: T1, interleukin-23 receptor (IL-23R), Q5VWK5
- T1 chain: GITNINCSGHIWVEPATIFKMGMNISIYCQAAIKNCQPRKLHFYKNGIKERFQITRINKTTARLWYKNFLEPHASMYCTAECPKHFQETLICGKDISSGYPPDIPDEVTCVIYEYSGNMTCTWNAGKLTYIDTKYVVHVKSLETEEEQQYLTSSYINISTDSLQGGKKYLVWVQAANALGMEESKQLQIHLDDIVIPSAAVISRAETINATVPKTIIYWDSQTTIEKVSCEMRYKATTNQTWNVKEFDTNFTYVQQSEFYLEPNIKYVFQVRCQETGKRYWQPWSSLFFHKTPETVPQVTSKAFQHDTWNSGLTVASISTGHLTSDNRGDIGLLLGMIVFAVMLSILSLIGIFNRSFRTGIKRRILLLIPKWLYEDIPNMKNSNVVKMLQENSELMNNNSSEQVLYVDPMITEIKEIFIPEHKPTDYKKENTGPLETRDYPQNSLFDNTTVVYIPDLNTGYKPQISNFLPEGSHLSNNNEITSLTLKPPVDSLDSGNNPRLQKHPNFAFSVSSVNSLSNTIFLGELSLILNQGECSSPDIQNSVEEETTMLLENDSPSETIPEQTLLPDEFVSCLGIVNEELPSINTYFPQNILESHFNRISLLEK
- experiment: cell-based or functional assay
Starred links: 1 amine or outer side, 2 acyl side, 3 side chain; linkers in the order of their positions; H or OH if unused. Positions of bridges follow the written chain, without caps; N, C: chain ends. Non-standard residues stand in square brackets, D forms with d. No end group written: not given here. X10 = 2‑amino‑3‑(4-(2-guanidinoethoxy)phenyl)propanoic acid, N=C(N)NCCOc1ccc(CC(N[*:1])C(=O)[*:2])cc1; 2Nal(6-OH) = N[C@@H](Cc1ccc2cc(O)ccc2c1)C(=O)O; Trp(7-Me) = Cc1cccc2c(C[C@H](N)C(=O)O)c[nH]c12; 3Pal = N[C@@H](Cc1cccnc1)C(=O)O; Pen = CC(C)(S)[C@H](N)C(=O)O; lipid = not defined here; Thp = NC1(C(=O)O)CCOCC1; Sar = CNCC(=O)O
Overview of reported PBMC pSTAT3 IC50 across a group of binders:

binder | PBMC pSTAT3 IC50
[(R)‑3‑carboxy‑2‑(4-(((R)-5-carboxy-5-hydrazineylpentyl)amino)-4-oxobutanamido)‑N,N,N‑trimethylpropan‑1‑aminium][Pen]NT[Trp(7-Me)]K(Ac)[Pen][2‑amino‑3‑(4-(2-aminoethoxy)phenyl)propanoic acid][2‑amino‑3‑(6-hydroxynaphthalen-2-yl)propanoic acid][Thp]EN[3Pal][Sar]K(lipid) (disulfide 2-7 (inferred); ends not checked; also: K15: lipidated lysine, lipid not given here) [SEQ ID NO: 166] | < 1 nM

Measured PBMC pSTAT3 IC50, [Pen]NT[Trp(7-Me)]K(Ac)[Pen][X10][2Nal(6-OH)][Thp]EN[3Pal][Sar] (ends and bridges not checked) [SEQ ID NO: 24] : < 0.1 nM
